target or test system: human mAChR M1 (Homo sapiens)
assay procedure: mAChR M1 cell-based functional assay (calcium mobilization), agonist mode: compound alone, Emax relative to acetylcholine maximum
assay context: relative to the maximum for acetylcholine
observed property: Emax (%)

Here's what some known entries look like.
{"columns": ["structure smiles string", "units text", "Emax"],
 "data": [
  ["[2H]C1([2H])c2ncccc2C(=O)N1Cc1c(F)cc(-c2cccn3nc(C)cc23)cc1F", "%", 23],
  ["[2H]C1([2H])c2ncccc2C(=O)N1Cc1c(F)cc(-c2cc3cn(C)nc3cc2C)cc1F", "%", 7],
  ["[2H]C1([2H])c2ncccc2C(=O)N1Cc1c(F)cc(-c2cccc3nn(C(C)C)cc23)cc1F", "%", 2],
  ["[2H]C1([2H])c2ncccc2C(=O)N1Cc1ccc(-c2ccc(F)c3nn(C([2H])([2H])[2H])cc23)cc1C", "%", 5],
  ["[2H]C1([2H])c2ncccc2C(=O)N1Cc1c(C)cc(-c2ccc(OC3CC3)c3nn(C)cc23)cc1F", "%", 43]
]}

1. [2H]C1([2H])c2ncccc2C(=O)N1Cc1c(F)cc(-c2ccc(OC(F)F)c3nn(C)cc23)cc1F
2. [2H]C1([2H])c2ncccc2C(=O)N1Cc1c(F)cc(-c2ccc(F)c3nn(C)cc23)cc1F
Which item exceeds the other in Emax, 1 or 2 ? Respond with the label that goes with your answer.
1
(1: 9%, 2: 5%)

----------
target or test system: UniProtKB P11229
assay procedure: mAChR M1 cell-based functional assay (calcium mobilization), PAM mode: increase in the EC20 acetylcholine response
pEC50: −log10 of the molar value.
observed property: pEC50

{"columns": ["structure smiles string", "target or test system", "pEC50"],
 "data": [
  ["[2H]C1([2H])c2ncccc2C(=O)N1Cc1ccc(-c2cnc3nn(C([2H])([2H])[2H])cc3c2)cc1F", "UniProtKB P11229", 6.28],
  ["[2H]C1([2H])c2ncccc2C(=O)N1Cc1ccc(-c2ccc(OCCOC3CC3)c3nn(C)cc23)cc1F", "UniProtKB P11229", 5.96],
  ["[2H]C1([2H])c2ncccc2C(=O)N1Cc1c(F)cc(-c2cccc3nn(C)cc23)cc1C(F)(F)F", "UniProtKB P11229", 5.86]
]}

I. [2H]C1([2H])c2ncccc2C(=O)N1Cc1ccc(-c2cccc3nn(C([2H])([2H])[2H])cc23)cc1C
II. [2H]C1([2H])c2ncccc2C(=O)N1Cc1ccc(-c2cc(C)c3nn(C)cc3c2)cc1F
III. [2H]C1([2H])c2ncccc2C(=O)N1Cc1c(F)cc(-c2ccc(O[C@@H](C)COC)c3nn(C)cc23)cc1F
Order each entry by recorded pEC50, climbing from the minimum. Give the labels in the order requested.
II, I, III
(II: 5.97, I: 6.17, III: 6.47)

----------
target or test system: human mAChR M1 (Homo sapiens)
assay procedure: mAChR M1 cell-based functional assay (calcium mobilization), agonist mode: compound alone, Emax relative to acetylcholine maximum
assay context: relative to the maximum for acetylcholine
observed property: Emax (%)

Here's what some known entries look like.
{"columns": ["compound", "Emax [%]"],
 "data": [
  ["[2H]C1([2H])c2ncccc2C(=O)N1Cc1c(F)cc(-c2ccc(F)c3nn(C)cc23)cc1Cl [Compound 164]", 3],
  ["[2H]C1([2H])c2ncccc2C(=O)N1Cc1ccc(-c2ccc(OCCOC3CC3)c3nn(C)cc23)cc1F [Compound 154]", 17],
  ["[2H]C1([2H])c2ncccc2C(=O)N1Cc1c(F)cc(-c2ccc(Cl)c3nn(C)cc23)cc1OCC(C)C [Compound 215]", 2],
  ["[2H]C1([2H])c2ncccc2C(=O)N1Cc1c(F)cc(-c2cnc3nn(C)cc3c2)cc1F [Compound 3]", 31],
  ["[2H]C1([2H])c2ncccc2C(=O)N1Cc1c(F)cc(-c2ccc(OC(C)C)c3c2cnn3C([2H])([2H])[2H])cc1F [Compound 250]", 3],
  ["[2H]C1([2H])c2ncccc2C(=O)N1Cc1ccc(-c2ccc(OCCOC(C)C)c3nn(C)cc23)cc1F [Compound 153]", 15],
  ["[2H]C1([2H])c2ncccc2C(=O)N1Cc1c(F)cc(-c2ccc(OC3CCC3)c3nn(C)cc23)cc1F [Compound 125]", 14],
  ["[2H]C1([2H])c2ncc(O)cc2C(=O)N1Cc1c(F)cc(-c2cccc3nn(C)cc23)cc1F [Compound 62]", 57]
]}

P. [2H]C1([2H])c2ncccc2C(=O)N1Cc1ccc(-c2ccc(OCCOC)c3nn(C([2H])([2H])[2H])cc23)cc1F [Compound 117]
Q. [2H]C1([2H])c2ncccc2C(=O)N1Cc1c(F)cc(-c2ccc(OC3CN(S(=O)(=O)C(C)C)C3)c3nn(C)cc23)cc1F [Compound 187]
Input pair: P , Q . Output: entry with lower Emax. Respond with the label that goes with your answer.
Q
(Q: 1%, P: 21%)

----------
target or test system: human mAChR M1 (Homo sapiens)
assay procedure: mAChR M1 cell-based functional assay (calcium mobilization), PAM mode: increase in the EC20 acetylcholine response
observed property: Emax (%)

Here's what some known entries look like.
{"columns": ["compound", "observed property", "numeric readout"],
 "data": [
  ["[2H]C1([2H])c2ncccc2C(=O)N1Cc1c(F)cc(-c2cccc3c2cnn3C)cc1F [Compound 35]", "Emax", 63],
  ["[2H]C([2H])([2H])c1cc2c(-c3cc(F)c(CN4C(=O)c5cccnc5C4([2H])[2H])c(F)c3)cccn2n1 [Compound 236]", "Emax", 76],
  ["[2H]C1([2H])c2ncccc2C(=O)N1Cc1c(F)cc(-c2cccc3c2cnn3C(F)F)cc1F [Compound 243]", "Emax", 34],
  ["[2H]C1([2H])c2ncccc2C(=O)N1Cc1c(F)cc(-c2ccc(OC(C)C)c3nn(C([2H])([2H])[2H])cc23)cc1F [Compound 99]", "Emax", 83],
  ["[2H]C1([2H])c2ncccc2C(=O)N1Cc1c(F)cc(-c2ccc(F)c3nn(C([2H])([2H])[2H])cc23)cc1F [Compound 45]", "Emax", 73],
  ["[2H]C1([2H])c2ncccc2C(=O)N1Cc1c(F)cc(-c2ccc(OC)c3c2cnn3C([2H])([2H])[2H])cc1F [Compound 69]", "Emax", 68]
]}

a. [2H]C1([2H])c2ncccc2C(=O)N1Cc1ccc(-c2cccc3nn(C([2H])([2H])[2H])cc23)cc1C [Compound 46]
b. [2H]c1nnc2cccc(-c3ccc(CN4C(=O)c5cccnc5C4([2H])[2H])cc3)n12 [Compound 240]
c. [2H]C1([2H])c2ncccc2C(=O)N1Cc1c(F)cc(-c2cc3cn(C)nc3cc2F)cc1F [Compound 4]
Output the entries ranked by Emax from maximum down to minimum. Give the labels in the order requested.
a, c, b
(a: 77%, c: 48%, b: 27%)

----------
target or test system: human mAChR M1 (Homo sapiens)
Sequence (P11229 1-460): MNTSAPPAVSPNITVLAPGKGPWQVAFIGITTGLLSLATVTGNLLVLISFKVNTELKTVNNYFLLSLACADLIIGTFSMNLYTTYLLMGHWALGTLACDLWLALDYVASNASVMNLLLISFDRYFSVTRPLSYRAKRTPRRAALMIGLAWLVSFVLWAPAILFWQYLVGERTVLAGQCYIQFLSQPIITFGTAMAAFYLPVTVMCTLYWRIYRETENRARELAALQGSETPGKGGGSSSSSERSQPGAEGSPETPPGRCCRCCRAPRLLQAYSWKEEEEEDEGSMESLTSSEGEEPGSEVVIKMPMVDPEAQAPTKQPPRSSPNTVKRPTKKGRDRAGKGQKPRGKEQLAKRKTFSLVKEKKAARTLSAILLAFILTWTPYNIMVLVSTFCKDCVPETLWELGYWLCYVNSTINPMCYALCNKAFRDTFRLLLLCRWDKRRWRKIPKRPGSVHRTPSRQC
assay procedure: mAChR M1 cell-based functional assay (calcium mobilization), agonist mode: compound alone, Emax relative to acetylcholine maximum
assay context: relative to the maximum for acetylcholine
Description: Chinese hamster ovary (CHO-K1) cells stably expressing rat (r)M1 were purchased from the American Type Culture Collection and cultured according to their indicated protocol. […] Calcium flux was measured using the Functional Drug Screening System (FDSS) 6000 (Hamamatsu Corporation, Tokyo, Japan) as an increase in the fluorescent static ratio. […] Agonist activity was analyzed as a concentration-dependent increase in calcium mobilization upon compound addition. […]
observed property: Emax (%)

P. [2H]C1([2H])c2ncccc2C(=O)N1Cc1c(F)cc(-c2cc(C)cc3nn(C)cc23)cc1F [Compound 32]
Q. [2H]C1([2H])c2ncccc2C(=O)N1Cc1c(F)cc(-c2ccc(OC)c3nn(C)cc23)cc1F [Compound 39]
Which item exceeds the other in Emax, P or Q ? Respond with the label that goes with your answer.
P
(P: 16%, Q: 9%)
